Recorded Ki for the following compounds
- assay-protocol: Mixed-type inhibition of recombinant human ALR2 expressed in Escherichia coli BL21 (DE3) assessed as enzyme-inhibitor complex using varying levels of D,L-glyceraldehyde substrate by Hanes-Woolf plot analysis
Give the number; µM is assumed, so skip it.

O=C(c1ccc(F)cc1)c1cc(C(=O)C(F)(F)F)n(-c2cnn(O)c2)c1 = 5.27

Kindly consider the entry below.
Exam item: If you can, please state the reported Ki value of CSc1ccc(C(=O)c2cc(C(=O)C(F)(F)F)n(-c3cnn(O)c3)c2)cc1 .
Marked response: 2.01

* * *

- target-under-test: Aldo-keto reductase family 1 member A1 (Rattus norvegicus)
- Sequence (P51635 whole entry, looked up): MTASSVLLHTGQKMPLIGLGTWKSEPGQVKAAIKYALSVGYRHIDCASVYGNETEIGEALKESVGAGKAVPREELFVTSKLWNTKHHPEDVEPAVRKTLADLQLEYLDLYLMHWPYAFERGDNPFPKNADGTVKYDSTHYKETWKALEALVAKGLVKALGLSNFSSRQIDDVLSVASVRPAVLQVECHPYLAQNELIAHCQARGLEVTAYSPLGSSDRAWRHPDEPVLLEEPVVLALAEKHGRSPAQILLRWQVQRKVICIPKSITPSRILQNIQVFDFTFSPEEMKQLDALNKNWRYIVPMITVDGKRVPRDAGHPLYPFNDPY
property: IC50

COc1ccc(C(=O)c2cc(C(=O)C(F)(F)F)n(-c3cnn(O)c3)c2)cc1 = 34.2 µM

Exam item: Requested read-out: IC50. Entry: O=C(c1ccc(-c2ccccc2)cc1)c1cc(C(=O)C(F)(F)F)n(-c2cnn(O)c2)c1
Marked response: 14.1 µM

Exam item: Value lookup for IC50; key = CSc1ccc(C(=O)c2cc(C(=O)C(F)(F)F)n(-c3cnn(O)c3)c2)cc1
Marked response: 27.9 µM

Exam item: # IC50 lookup, item O=C(c1ccccc1)c1cc(C(=O)C(F)(F)F)n(-c2cnn(O)c2)c1
Marked response: > 100 µM

* * *

- assay-protocol: Mixed-type inhibition of recombinant human ALR2 expressed in Escherichia coli BL21 (DE3) assessed as enzyme-substrate-inhibitor complex using varying levels of D,L-glyceraldehyde substrate by Hanes-Woolf plot analysis
property: pKi
Quick note: pKi values are minus log10 of concentrations in mol/L.

CSc1ccc(C(=O)c2cc(C(=O)C(F)(F)F)n(-c3cnn(O)c3)c2)cc1 = 6.68

Shifting focus to the compound that follows.
Exam item: Which pKi value is on record for O=C(c1ccc(F)cc1)c1cc(C(=O)C(F)(F)F)n(-c2cnn(O)c2)c1 ?
Marked response: 6.09
